- System: CSNK1A1L
- measurement_setup: concentration: 1 μM, replicates: in singlicate; n = 1;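 also: KINOMEscan kinase panel screen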
Use 9% as the dividing line for %Inh, with the line itself on the 1.0 side and lower values as 0.0.

| compound | qualitative_label |
| --- | --- |
| CSc1cccc2c(-c3ccncn3)c(-c3ccc(F)cc3)nn12 [GW514786] | 1.0 |
| Cl.c1ccc(-c2ccc3c(Nc4ccc5[nH]ncc5c4)ccnc3c2)nc1 [GW440137] | 0.0 |
| Cn1cc(-c2ccc3c(c2)CCN3C(=O)Cc2cccc(F)c2)c2c(N)ncnc21 [GSK2603358] | 0.0 |
| Nc1ncc(-c2ccc3nccc(-c4ccncc4)c3c2)cc1S(=O)(=O)N1CCOCC1 [GSK1627798] | 0.0 |

---

- Tested on: ACVRL1
- measurement_setup: concentration: 1 μM, replicates: in singlicate; n = 1

| compound | assay_system | %Inh [%] |
| --- | --- | --- |
| O=C(Nc1ccccc1F)NC1CCN(c2ccnc(Nc3ccc(F)cc3)n2)CC1 [GSK1379800] | ACVRL1 | 0 |
| Cc1cccc(Nc2nc(N[C@H]3CCNC3)ncc2C(N)=O)c1.Cl [GSK2197149] | ACVRL1 | 0 |
| O=C(O)C(F)(F)F.O=C(O)C(F)(F)F.O=c1[nH]ccc2nc(N[C@@H]3CCCNC3)nc(Nc3ccc(S(=O)(=O)N4CCOCC4)cc3)c12 [GSK2177277] | ACVRL1 | 9 |
| CN(c1ccc(NC(=O)Nc2cc(C(F)(F)F)ccc2F)cc1)c1ccnc(Nc2ccc(S(N)(=O)=O)cc2)n1 [GW809893] | ACVRL1 | 4 |

---

- Tested on: CAMK1G
- measurement_setup: concentration: 1 μM, replicates: in singlicate; n = 1

| compound | %Inh (%) |
| --- | --- |
| COc1cc(Nc2nccc(-c3c(-c4cccc(NC(=O)c5c(F)cccc5F)c4)nn4ncccc34)n2)cc(OC)c1OC [GSK327238] | 3 |
| CN(C)Cc1ccc(-c2ccc3c(Nc4ccc(Oc5ccccn5)cc4)ccnc3c2)o1 [GW567148] | 0 |
| O=C(Nc1cccc(-c2nn3ccccc3c2-c2ccnc(Nc3cccc(F)c3)n2)c1)c1c(F)ccc(F)c1Cl [GSK357952] | 0 |
| Cc1cccc(Nc2nc(N[C@H]3CCNC3)ncc2C(N)=O)c1.Cl [GSK2197149] | 8 |
| COc1ccc(Nc2nccc(N3CCC(NC(=O)Nc4cccc(OC)c4)C3)n2)cc1 (centres unmarked) [GSK1379742] | 0 |

---

- System: ZAK
- measurement_setup: concentration: 1 μM, replicates: in singlicate; n = 1

| molecule | %Inh (%) |
| --- | --- |
| CCc1ccc(-c2ccc3c(c2)-c2c(cnn2C)S(=O)(=O)N3C)cc1 | 3 |
| c1ccc(-c2cnc3nccnn23)cc1 | 0 |
| O=C(Nc1ccccc1F)NC1CCN(c2ccnc(Nc3ccc(F)cc3)n2)CC1 | 30 |
| Cl.c1ccc(-c2ccc3c(Nc4ccc5[nH]ccc5c4)ccnc3c2)nc1 | 0 |
| CN(c1ccc(NC(=O)Nc2cc(C(F)(F)F)ccc2F)cc1)c1ccnc(Nc2ccc(S(N)(=O)=O)cc2)n1 | 94.8 |
| Cc1ccc(C(=O)Nc2ccc(Nc3ccnc4cc(-c5nccs5)ccc34)cc2O)cc1.Cl | 63 |
| Cn1cc(-c2[nH]c3cc(NC(=O)[C@H](N)C4CCCCC4)cc4c3c2C=NNC4=O)cn1 | 0 |
| O=C(NC1CCN(c2ccnc(Nc3ccc(F)cc3)n2)C1)c1cc2ccccc2s1 (stereo not drawn) | 20 |
| COCCOCCOc1cc2ncc3c4ccc(C#N)cc4[nH]c3c2cc1OC | 33 |
| Clc1ccc(-c2nn3ncccc3c2-c2ccnc(Nc3ccc4c(c3)OCCO4)n2)cc1 | 9 |
| COc1cc2c(cc1OCCN1CCNCC1)ncc1c3ccc(C#N)cc3[nH]c21 | 8 |
| Nc1ncc(-c2cccnc2)c2scc(-c3ccc4c(c3)CCN4C(=O)Cc3ccccc3)c12 | 9 |
| COc1cc(Nc2ncc3c(C)nc(-c4cc5ccccc5[nH]4)n3n2)cc(OC)c1OC | 0 |
| Cc1occc1-c1ncc(OC[C@@H](N)Cc2c[nH]c3ccccc23)cc1-c1ccc2[nH]nc(C)c2c1.O=C(O)C(F)(F)F | 0 |
| Fc1ccc(-c2ncn(C3CCNCC3)c2-c2ccnc(Oc3ccc(-c4ccccc4)cc3)n2)cc1 | 17 |
| CN(C)S(=O)(=O)c1cc(-c2ccc3nccc(-c4cccc(S(N)(=O)=O)c4)c3c2)cnc1N | 0 |
| COc1ccc(Nc2nccc(N3CCC(NC(=O)Nc4cccc(OC)c4)C3)n2)cc1 (stereo not drawn) | 2 |
| O=c1[nH]cc(-c2ccc(N3CCOCC3)cc2)c2sc(-c3cn[nH]c3)cc12 | 69 |
| CCn1c(-c2nonc2N)nc2c(C#CC(C)(C)O)ncc(OCCCCN)c21.O=C(O)C(F)(F)F.O=C(O)C(F)(F)F | 36 |
| O=C(O)C(F)(F)F.O=C(O)C(F)(F)F.O=c1[nH]ccc2nc(N[C@@H]3CCCNC3)nc(Nc3ccc(S(=O)(=O)N4CCOCC4)cc3)c12 | 0 |
| Nc1n[nH]c2cnc(-c3ccccc3)cc12 | 16 |
| CC(C)c1nc(-c2cccc(NS(=O)(=O)c3c(F)cccc3F)c2F)c(-c2ccnc(Nc3ccc(N4CCOCC4)nc3)n2)s1 | 99.1 |
| CSc1cccc2c(-c3ccncn3)c(-c3ccc(F)cc3)nn12 | 0 |
| Cl.Cl.NCC(C(=O)Nc1cc(Br)c(-c2ccnc3[nH]ccc23)s1)c1ccccc1 (stereo not drawn) | 0 |
| c1ccc(-c2n[nH]cc2Nc2ccnc3ccccc23)nc1 | 0 |
| COC(=O)Nc1nc2ccc(Oc3ccc(NC(=O)Nc4cc(C(F)(F)F)ccc4F)cc3)cc2n1C.Cl | 87 |
| COc1cc(Nc2nccc(N3CCC(NC(=O)c4cc5ccccc5s4)C3)n2)cc(OC)c1OC (stereo not drawn) | 0 |
| CCn1c(-c2nonc2N)nc2c(C#CC(C)(C)O)nc(OC[C@H](N)c3ccccc3)cc21 | 0 |
| COc1cccc(C2=C(Nc3ccc(Cl)c(C(=O)O)c3)C(=O)NC2=O)c1 | 0 |
| O=C(Nc1cccc(Oc2ccc3nc(NC(=O)C4CC4)cn3n2)c1)c1ccccc1C(F)(F)F | 25 |
| COC(=O)Nc1nc2cc(Oc3ccc(NC(=O)Nc4cc(C(F)(F)F)ccc4F)cn3)ccc2[nH]1.Cl.Cl | 92 |
| Cc1ccc(C(=O)N2CC[C@@H](O)C2)cc1-n1c(C)cc(OCc2ccc(F)cc2F)c(Br)c1=O | 0 |
| Cc1ccc(C)c(NC(=O)NC2CCN(c3ccnc(Nc4ccc(F)cc4)n3)C2)c1 (stereo not drawn) | 15 |
